Entries and their EC50 values follow.
Biological target: T1, endogenous human ErbB3 expressed on human cancer cells (MCF7; A431NS) (human, UniProt P21860 20-1342)
T1 construct: whole, on cells; also called Her3; HER3/c-ErbB3
T1 sequence (P21860 20-1342): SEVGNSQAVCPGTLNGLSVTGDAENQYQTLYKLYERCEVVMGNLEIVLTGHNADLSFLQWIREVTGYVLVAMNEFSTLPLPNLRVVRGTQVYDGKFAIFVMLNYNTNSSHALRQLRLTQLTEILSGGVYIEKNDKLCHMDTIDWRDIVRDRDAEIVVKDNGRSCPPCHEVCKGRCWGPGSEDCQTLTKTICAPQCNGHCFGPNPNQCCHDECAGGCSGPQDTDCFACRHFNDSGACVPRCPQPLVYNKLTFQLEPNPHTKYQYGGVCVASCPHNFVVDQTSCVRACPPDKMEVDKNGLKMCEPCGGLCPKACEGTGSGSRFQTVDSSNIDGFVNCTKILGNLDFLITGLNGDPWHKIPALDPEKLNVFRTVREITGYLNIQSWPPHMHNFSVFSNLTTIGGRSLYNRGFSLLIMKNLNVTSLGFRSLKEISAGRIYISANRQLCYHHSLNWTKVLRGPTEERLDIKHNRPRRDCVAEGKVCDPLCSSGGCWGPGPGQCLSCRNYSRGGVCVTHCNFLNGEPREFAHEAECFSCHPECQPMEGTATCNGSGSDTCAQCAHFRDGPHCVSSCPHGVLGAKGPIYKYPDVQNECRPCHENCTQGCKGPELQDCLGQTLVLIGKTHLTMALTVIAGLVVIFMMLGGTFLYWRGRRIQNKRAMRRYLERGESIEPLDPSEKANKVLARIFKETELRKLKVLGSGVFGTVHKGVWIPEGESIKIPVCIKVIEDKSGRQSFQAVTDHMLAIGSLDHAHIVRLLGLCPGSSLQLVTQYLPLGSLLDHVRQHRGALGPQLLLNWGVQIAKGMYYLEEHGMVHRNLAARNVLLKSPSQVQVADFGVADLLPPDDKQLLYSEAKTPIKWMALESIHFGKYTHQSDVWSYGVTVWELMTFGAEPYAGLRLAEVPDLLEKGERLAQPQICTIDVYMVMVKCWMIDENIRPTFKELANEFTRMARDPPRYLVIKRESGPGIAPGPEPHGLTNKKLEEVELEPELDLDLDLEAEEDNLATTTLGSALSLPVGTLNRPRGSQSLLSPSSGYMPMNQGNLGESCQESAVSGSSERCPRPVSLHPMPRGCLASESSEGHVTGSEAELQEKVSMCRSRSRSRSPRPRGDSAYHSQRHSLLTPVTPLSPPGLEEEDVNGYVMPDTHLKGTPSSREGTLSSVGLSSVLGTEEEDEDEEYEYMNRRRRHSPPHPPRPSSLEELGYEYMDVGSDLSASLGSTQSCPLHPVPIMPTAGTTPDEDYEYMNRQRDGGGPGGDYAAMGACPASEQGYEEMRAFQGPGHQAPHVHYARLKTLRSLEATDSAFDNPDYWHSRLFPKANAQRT
Experiment: flow cytometry on MCF7 cells

- binder: "B01 (antibody, V domains shown) VH: QVQLVESGGGLVQPGGSLRLACAASGFTFSNYEMNWVRQAPGKGLEWVATISDDSVYKYYADSVKGRFTISRDNSKALFYLQMDSLTFEDTAIYYCARDPGGDSLGYFQHWGQGTLVTVSS VL: QAGLTQPPSASASPGDSVTLTCTLSSDHSDYKVDWYQQRPGKGPRFVMRVGTGGIVGVKVSNRFSGSKSGNTASLTISGLQAEDEADYYCSSYTDSSTLDVVFGGGTKLTVL"
  EC50 [nM]: 2.65
- binder: "D10 (antibody, V domains shown) VH: QVQLVESGGGLVQPGGSLRLACAASGFTFSNYEMNWVRQAPGKGLEWVATISDDSVYKYYADSVKGRFTISRDNSKALFYLQMDSLTFEDTAIYYCARDPGGDSLGYFQHWGQGTLVTVSS VL: QAGLTQPPSASASPGDSVTLTCTLSSDHSDYKVDWYQQRPGKGPRFVMRVGTGGIVGVKGDGIPDRFSVWGSGPNRYLTIKNIQEEDESDYHCGSDHGSGNNYVYVFGGGTKLTVL"
  EC50 [nM]: 2.01
- binder: "A08 (antibody, V domains shown, also called ErbB3-A08) VH: QMQLVQSGADVKKPGASVRVSCKTSGYTFTSYDINWVRQAPGQGLEWMGWMNPDTGNTAYVQKFQGRVTVTRDTSINTVYMELSGLRSEDTAVYYCAKSGGSSSYDAFDIWGQGTMVTVSS VL: QSVLTQPPSVSVAPGNTATITCGGDNIGEKTVHWYQQRPGQAPALVIYYDSDRPSGIPERFSGSNSGNTATLTISRVEAGDEADYYCQVWDSSSDHVVFGGGTKLTVL"
  EC50 [nM]: 0.747
- binder: "E08 (antibody, V domains shown) VH: EVQLVESGGGLIQPGGSLRLSCAASGFTVSSNYMSWVRQAPGKGLEWVSVIYSGGSTYYADSVKGRFTISRDNSKNTLYLQMNSLRAEDTAVYYCARDFGVGAVDYWGQGTLVTVSS VL: QSVLTQPASVSGSPGQSITISCTGTSSDVGGYNFVSWYQQHPGKAPKLMIYDVTNRPSGVSNRFSGSKSGNTASLTISGLQAEDEADYYCSSYTDSSTLDVVFGGGTKVTVL"
  EC50 [nM]: 3.07
- binder: "A01 (antibody, V domains shown, fully human antibody of an IgG class, detected with anti-human IgG (gamma-chain specific); also called ErbB3-A01; anti-ErbB3 A01) VH: QVQLVQSGAEVKQPGASVKVSCKASGGTFSSYAISWVRQAPGQGLEWMGGIIPIFGTANYAQKFQGRVTITADESTSTAYMELSSLRSEDTAVYYCATTTMVRGVIMYYFDYWGQGTLVTVSS VL: QSALTQPPSASGSPGQSVTISCTGTSSDVGAYNDVSWYQHHPGKAPKLIIYEVNHRPSGVPDRFSGSKSDNTASLTISGLQAEDEADYYCSSYTPSNTPLVFGSGTKVTVL"
  EC50 [nM]: 5.71
- binder: "D03 (antibody, V domains shown) VH: QVQLVESGGGLVKPGGSLRLSCAASGFTFSSYSMNWVRQAPGKGLEWVSSISSSSSYIYYADSVKGRFTISRDNSKNTLYLQMNSLRDEDTAVYYCAREILTGYYPDAFDMWGQGTMVTVSS VL: SYELMQPPSVSVAPGKTARITCGGNNIGSKSVHWYQQKPGQAPVVVIYYDSDRPSGIPERFSGSNSGNTATLTISRVEAGDEADYYCQVWDSSSDHYVFGTGTKLTVL"
  EC50 [nM]: 5.97
